Target: T1, Cynomolgus CD3εδ Fc heterodimer (Cy CD3ε Fc / CD3δ Fc-HIS) (cynomolgus, UniProt Q95LI8 22-100)
T1 chain 1: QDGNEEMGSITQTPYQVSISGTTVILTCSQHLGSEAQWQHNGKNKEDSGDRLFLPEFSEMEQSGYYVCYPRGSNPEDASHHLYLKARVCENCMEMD
T1 chain 2: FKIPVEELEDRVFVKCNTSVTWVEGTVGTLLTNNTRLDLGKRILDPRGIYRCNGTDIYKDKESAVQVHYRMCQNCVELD
Assay: BLI (Octet), IgG on AHC sensor, pH 7.4
Each record here notes measured koff.
Could you give me the number in s⁻¹? Just the number is fine.

Binder	koff (s⁻¹)
SAD10320_P01_A03 (ADI-57353) (antibody, V domains shown, IgG; also called Ab60) VH: QVQLVQSGAEVKKPGASVKVSCKASGFNIKDYYMHWVRQAPGQRLEWMGWIDLENANTIYDAKFQGRVTITRDTSASTAYMELSSLRSEDTAVYYCARDHRGRYFYDVWGQGTLVTVSS VL: DIVMTQSPDSLAVSLGERATINCKSSQSLLNARTGKNYLAWYQQKPGQPPKLLIYWASTRESGVPDRFSGSGSGTDFTLTISSLQAEDVAVYYCKQSSHRRTFGGGTKVEIK	0.0174

Task: Would you kindly share the measured koff for SAD10319_P01_E02 (ADI-57304) (antibody, V domains shown, IgG; also called Ab240) VH: QVQLVQSGAEVKKPGASVKVSCKASGYTFTSDFMHWVRQAPGQRLEWMGWINPATGATKYSQKFQGRVTITRDTSASTAYMELSSLRSEDTAVYYCARDAYGHYFYDHWGQGTLVTVSS VL: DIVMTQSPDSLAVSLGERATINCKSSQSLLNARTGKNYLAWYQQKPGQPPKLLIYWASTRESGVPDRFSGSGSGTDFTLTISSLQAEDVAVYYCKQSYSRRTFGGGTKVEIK ?
Output: 0.0355

Task: Would you kindly share the measured koff for SAD10319_P04_B10 (ADI-57332) (antibody, V domains shown, IgG; also called Ab30) VH: QVQLVQSGAEVKKPGASVKVSCKASGYTFTSTFMHWVRQAPGQRLEWMGFIDAGTGATKYSQKFQGRVTITRDTSASTAYMELSSLRSEDTAVYYCARDAYGHYFYDHWGQGTLVTVSS VL: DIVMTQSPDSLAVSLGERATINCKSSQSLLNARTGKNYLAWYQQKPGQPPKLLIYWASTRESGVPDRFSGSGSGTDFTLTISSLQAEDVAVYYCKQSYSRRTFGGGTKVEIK ?
Output: 0.0199

Task: Would you kindly share the measured koff for SAD10320_P02_F06 (ADI-57370) (antibody, V domains shown, IgG; also called Ab87) VH: QVQLVQSGAEVKKPGASVKVSCKASGFNIKDYYMHWVRQAPGQRLAWMGWIDLENANTIYDAKFQGRVTITRDTSASTAYMELSSLRSEDTAVYYCARDAYGRFHYDVWGQGTLVTVSS VL: DIVMTQSPDSLAVSLGERATINCKSSQSLLNARPGKNYLAWYQQKPGQPPKLLIYWASTRESGVPDRFSGSGSGTDFTLTISSLQAEDVAVYYCKQSYSRRTFGGGTKVEIK ?
Output: 0.0166

Task: Would you kindly share the measured koff for SAD10320_P02_G06 (ADI-57371) (antibody, V domains shown, IgG; also called Ab88) VH: QVQLVQSGAEVKKPGASVKVSCKASGFNIKDYYMHWVRQAPGQRLDWMGWIDLENANTIYDAKFQGRVTITRDTSASTAYMELSSLRSEDTAVYYCARDAYGRHFYDVWGQGTLVTVSS VL: DIVMTQSPDSLAVSLGERATINCKSSQSLLNARTRTNYLAWYQQKPGQPPKLLIYWASTRESGVPDRFSGSGSGTDFTLTISSLQAEDVAVYYCKQSYSRRTFGGGTKVEIK ?
Output: 0.0219
